Measurement target: HIPK2 (human)
Test description: radiometric filter-binding kinase assay, Kinase HotSpot
Test parameters: compound 0.5 µM; ATP 10 µM
Observable: residual activity (%)
# unit: % | format: bare number

Here is how some molecules turned out for residual activity.
CCCCc1c(-c2ccc(O)cc2)[nH]c2nccnc12    88.5
N#CCCc1ccc2c(c1)-c1[nH]c3ccc([N+](=O)[O-])cc3c1CC(=O)N2    106
O=S(=O)(NCCNC/C=C/c1ccc(Br)cc1)c1cccc2cnccc12    99.2
O=C(O)c1ccc2c3c1cccc3c(=O)n1c3ccccc3nc21    101

// sample c1ccc(-c2cnc(Nc3ccc(OCCN4CCCC4)cc3)s2)cc1 , its residual activity was 97.5

// sample O=c1c(-c2ccc(F)cc2)c(-c2ccncc2)[nH]n1-c1ccc(Cl)cc1 , its residual activity was 89

###

Measurement target: CAMK2A (human) (UniProt Q9UQM7)
Sequence (Q9UQM7 whole entry, looked up): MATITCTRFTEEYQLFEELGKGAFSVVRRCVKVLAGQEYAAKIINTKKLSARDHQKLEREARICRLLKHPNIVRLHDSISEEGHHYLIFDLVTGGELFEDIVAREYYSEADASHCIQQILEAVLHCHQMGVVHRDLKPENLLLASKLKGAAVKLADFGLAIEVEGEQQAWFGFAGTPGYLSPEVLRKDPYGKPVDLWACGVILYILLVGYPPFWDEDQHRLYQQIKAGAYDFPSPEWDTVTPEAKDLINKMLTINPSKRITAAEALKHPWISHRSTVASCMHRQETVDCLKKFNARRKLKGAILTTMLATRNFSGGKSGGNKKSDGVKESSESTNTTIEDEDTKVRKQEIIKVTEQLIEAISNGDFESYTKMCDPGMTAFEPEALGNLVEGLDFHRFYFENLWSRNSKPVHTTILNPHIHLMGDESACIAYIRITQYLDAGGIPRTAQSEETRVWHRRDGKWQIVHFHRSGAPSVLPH
Test description: radiometric filter-binding kinase assay, Kinase HotSpot
Test parameters: compound 0.5 µM; ATP 10 µM
Observable: residual activity (%)
# unit: % | format: bare number

Here is how some compounds turned out for residual activity.
O=C1NC(=O)c2cc(Nc3ccc(F)cc3)c(Nc3ccc(F)cc3)cc21    103
FC(F)(F)c1ccc(/C=C/c2nc(COc3ccc(CCCCn4ccnn4)cc3)co2)cc1    101
N#CCCc1ccc2c(c1)-c1[nH]c3ccc([N+](=O)[O-])cc3c1CC(=O)N2    69.1
COc1cccc(-c2cc(=O)c3ccccc3o2)c1N    93.6
COc1cc2ncnc(Nc3ccc(O)c(Br)c3)c2cc1OC    98
COc1cc2c(N3CCN(C(=O)Nc4ccc(OC(C)C)cc4)CC3)ncnc2cc1OCCCN1CCCCC1    101
c1ccc(-c2cnc(Nc3ccc(OCCN4CCCC4)cc3)s2)cc1    62.9
O=c1c2ccccc2[nH]c(=S)n1CCN1CCC(=C(c2ccc(F)cc2)c2ccc(F)cc2)CC1    105

// sample Cc1cc(Nc2nc(-c3ccccc3)nc3ccccc23)n[nH]1 , its residual activity was 108

// sample COc1cc2c(Nc3ccc(Br)cc3F)ncnc2cc1OCC1CCN(C)CC1 , its residual activity was 99.8

// sample O=c1cc(N2CCOCC2)oc2c(-c3ccccc3)cccc12 , its residual activity was 91.1

###

Measurement target: PTK2B (human)
Test description: radiometric filter-binding kinase assay, Kinase HotSpot
Test parameters: compound 0.5 µM; ATP 10 µM
Observable: residual activity (%)
# unit: % | format: bare number

Here is how some compounds turned out for residual activity.
FC(F)(F)c1ccc(/C=C/c2nc(COc3ccc(CCCCn4ccnn4)cc3)co2)cc1    103
O=C1NC(=O)c2c1c1c3ccccc3[nH]c1c1[nH]c3cc(Br)ccc3c21    79.5
Nc1ncnc2c1cnn2-c1ccccc1    108
O=S(=O)(NCCNC/C=C/c1ccc(Br)cc1)c1cccc2cnccc12    85
c1ccc(-c2cnc(Nc3ccc(OCCN4CCCC4)cc3)s2)cc1    77.2

// sample O=C1NC(=O)c2cc(Nc3ccc(F)cc3)c(Nc3ccc(F)cc3)cc21 , its residual activity was 111

// sample O=C(O)c1ccc2c3c1cccc3c(=O)n1c3ccccc3nc21 , its residual activity was 69.2

// sample CCc1nc(-c2ccc(OC)cc2)[nH]c1-c1ccncc1 , its residual activity was 94.6

// sample O=c1[nH]c2ccccc2n1C1CCN(Cc2ccc(-c3nc4cc5[nH]cnc5cc4nc3-c3ccccc3)cc2)CC1 , its residual activity was 105
